- Test target: C3a anaphylatoxin chemotactic receptor (Homo sapiens) (UniProt Q16581)
- Sequence (Q16581 whole entry): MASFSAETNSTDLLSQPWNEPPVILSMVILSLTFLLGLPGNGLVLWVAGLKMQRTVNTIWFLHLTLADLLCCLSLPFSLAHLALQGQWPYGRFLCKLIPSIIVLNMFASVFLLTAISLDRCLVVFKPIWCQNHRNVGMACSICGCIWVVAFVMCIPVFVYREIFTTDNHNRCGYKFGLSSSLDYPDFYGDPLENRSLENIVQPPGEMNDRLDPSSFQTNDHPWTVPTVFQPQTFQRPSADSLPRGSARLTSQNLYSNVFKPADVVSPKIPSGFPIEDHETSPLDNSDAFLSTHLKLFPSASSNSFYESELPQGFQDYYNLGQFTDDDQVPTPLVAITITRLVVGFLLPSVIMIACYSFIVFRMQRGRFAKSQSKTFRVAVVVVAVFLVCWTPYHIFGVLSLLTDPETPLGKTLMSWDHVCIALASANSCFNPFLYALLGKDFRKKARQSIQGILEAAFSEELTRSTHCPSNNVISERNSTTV
- Assay overview: Agonist activity at human C3a receptor in human U937 cells assessed as induction of intracellular calcium release at 1 mM
- Format: functional, cell-based
- Experimental setup: U-937
Activity calls are given as the source filed them. The rule behind the calls is not given here. Peptide text beside a SMILES is read from it.
Recorded metric: Activity

1. CC(C)C[C@H](NC(=O)[C@@H]1CCCN1C(=O)[C@H](CCC(=O)O)NC(=O)[C@@H](N)Cc1ccccc1)C(=O)N[C@@H](C)C(=O)N[C@@H](CCCNC(=N)N)C(=O)O (H-FEPLAR-OH) :: inactive
2. CC(=O)N[C@@H](Cc1ccccc1)C(=O)N[C@H]1CCCNC(=O)[C@H](CCCN=C(N)N)NC(=O)[C@H](Cc2c[nH]c3ccccc23)NC(=O)[C@@H](CC2CCCCC2)NC(=O)[C@@H]2CCCN2C1=O :: inactive
3. C[C@H](NC(=O)[C@H](Cc1c[nH]c2ccccc12)NC(=O)[C@@H]1CCCN1C(=O)[C@H](CCCCN)NC(=O)[C@@H](N)Cc1ccccc1)C(=O)N[C@@H](CCCNC(=N)N)C(=O)O (H-FKPWAR-OH) :: inactive

====

Quick reference for EC50 among some compounds
- Test target: C3a anaphylatoxin chemotactic receptor (Homo sapiens, UniProt Q16581)
- Sequence (Q16581 whole entry): as above
- Assay overview: Agonist activity at human C3a receptor in human U937 cells assessed as induction of intracellular calcium release
- Type: functional, cell-based, U-937
- Experimental setup: read-out: EC50
Square brackets hold non-standard residues; d marks the D form. Peptide text beside a SMILES is read from it. hPhe = N[C@@H](CCc1ccccc1)C(=O)O; Nle = CCCC[C@H](N)C(=O)O
Recorded metric: EC50 (nM)

1) CC(C)C[C@H](NC(=O)CNC(=O)[C@H](CC(C)C)NC(=O)[C@@H](N)Cc1ccccc1)C(=O)N[C@@H](C)C(=O)N[C@@H](CCCNC(=N)N)C(=O)O (H-FLGLAR-OH) :: 520
2) CC(C)C[C@H](NC(=O)[C@@H]1CCCN1C(=O)[C@H](CCCCN)NC(=O)[C@@H](N)Cc1ccccc1)C(=O)N[C@@H](Cc1c[nH]c2ccccc12)C(=O)N[C@@H](CCCN=C(N)N)C(=O)O (H-FKPLWR-OH) :: 25000
3) CC(C)C[C@H](NC(=O)[C@H](CC(=O)O)NC(=O)[C@H](C)NC(=O)[C@H](CC(C)C)NC(=O)[C@@H](NC(=O)[C@H](CC(C)C)NC(=O)[C@@H](N)Cc1cnc[nH]1)[C@@H](C)O)C(=O)N[C@@H](CC(C)C)C(=O)N[C@@H](CS)C(=O)N[C@@H](CS)C(=O)N[C@@H](CC(C)C)C(=O)N[C@@H](CO)C(=O)N[C@@H](CC(C)C)C(=O)N1CCC[C@H]1C(=O)N[C@@H](Cc1ccccc1)C(=O)O (H-HLTLADLLCCLSLPF-OH) :: 1800
4) CC(C)C[C@H](NC(=O)[C@@H](NC(=O)[C@H](CC(C)C)NC(=O)[C@@H](N)CCc1ccccc1)[C@@H](C)O)C(=O)N[C@@H](C)C(=O)N[C@@H](CCCNC(=N)N)C(=O)O (H-[hPhe]LTLAR-OH) :: 11000
5) CCCC[C@H](NC(=O)[C@@H](NC(=O)[C@H](CC(C)C)NC(=O)[C@@H](N)Cc1ccccc1)[C@@H](C)O)C(=O)N[C@@H](C)C(=O)N[C@@H](CCCN=C(N)N)C(=O)O (H-FLT[Nle]AR-OH) :: 2700
6) CC(C)C[C@H](NC(=O)[C@@H](N)Cc1ccccc1)C(=O)N[C@H](C(=O)N[C@@H](CC(C)C)C(=O)N1CCC[C@H]1C(=O)N[C@@H](CCCN=C(N)N)C(=O)O)[C@@H](C)O (H-FLTLPR-OH) :: 29000
7) CC(C)C[C@H](NC(=O)[C@@H](NC(=O)[C@H](CCCCN)NC(=O)[C@@H](N)Cc1ccccc1)[C@@H](C)O)C(=O)N[C@@H](C)C(=O)N[C@@H](CCCNC(=N)N)C(=O)O (H-FKTLAR-OH) :: 3800
8) N=C(N)NCCC[C@@H](NC(=O)[C@H](CC1CCCCC1)NC(=O)[C@@H](CC1CCCCC1)NC(=O)[C@@H]1CCCN1C(=O)[C@H](CCCCN)NC(=O)[C@@H](N)Cc1ccccc1)C(N)=O :: 2200
9) CC(=O)N[C@@H](Cc1ccccc1)C(=O)N[C@@H](CC(C)C)C(=O)N[C@H](C(=O)N[C@@H](CC(C)C)C(=O)N[C@@H](C)C(=O)N[C@@H](CCCNC(=N)N)C(=O)O)[C@@H](C)O (Ac-FLTLAR-OH) :: 520
10) CC(C)C[C@H](NC(=O)[C@@H]1CCCN1C(=O)[C@H](Cc1ccccc1)NC(=O)[C@@H](N)Cc1ccccc1)C(=O)N[C@@H](C)C(=O)N[C@@H](CCCNC(=N)N)C(=O)O (H-FFPLAR-OH) :: 5400
11) CC(C)C[C@H](NC(=O)[C@@H](NC(=O)[C@H](Cc1ccc(O)cc1)NC(=O)[C@@H](N)Cc1ccccc1)[C@@H](C)O)C(=O)N[C@@H](C)C(=O)N[C@@H](CCCNC(=N)N)C(=O)O (H-FYTLAR-OH) :: 4800
12) CC(C)C[C@H](NC(=O)[C@H](C)NC(=O)[C@H](Cc1c[nH]c2ccccc12)NC(=O)[C@@H](N)Cc1ccccc1)C(=O)N[C@@H](C)C(=O)N[C@@H](CCCN=C(N)N)C(=O)O (H-FWALAR-OH) :: 1200
13) CC(C)C[C@H](NC(=O)[C@@H](NC(=O)[C@H](Cc1c[nH]c2ccccc12)NC(=O)[C@@H](N)Cc1ccccc1)[C@@H](C)O)C(=O)N[C@@H](C)C(=O)N[C@@H](CCCNC(=N)N)C(=O)O (H-FWTLAR-OH) :: 370
14) CC(C)C[C@H](NC(=O)[C@@H](NC(=O)[C@H](CCCNC(=N)N)NC(=O)[C@@H](N)Cc1ccccc1)[C@@H](C)O)C(=O)N[C@@H](C)C(=O)N[C@@H](CCCNC(=N)N)C(=O)O (H-FRTLAR-OH) :: 6800
15) CC(C)C[C@H](NC(=O)[C@H](CO)NC(=O)[C@H](CC(C)C)NC(=O)[C@@H](N)Cc1ccccc1)C(=O)N[C@@H](C)C(=O)N[C@@H](CCCNC(=N)N)C(=O)O (H-FLSLAR-OH) :: 360
16) CCCC[C@H](NC(=O)[C@@H](N)Cc1ccccc1)C(=O)N[C@H](C(=O)N[C@@H](CC(C)C)C(=O)N[C@@H](C)C(=O)N[C@@H](CCCN=C(N)N)C(=O)O)[C@@H](C)O (H-F[Nle]TLAR-OH) :: 310
17) CC(C)C[C@H](NC(=O)[C@@H](NC(=O)[C@H](CC(C)C)NC(=O)[C@@H](N)Cc1ccccc1)[C@@H](C)O)C(=O)N[C@@H](C)C(=O)N[C@@H](CCCNC(=N)N)C(=O)O (H-FLTLAR-OH) :: 320
18) CC(C)C[C@H](NC(=O)[C@@H](NC(=O)[C@H](Cc1c[nH]c2ccccc12)NC(=O)[C@@H](N)Cc1c[nH]c2ccccc12)[C@@H](C)O)C(=O)N[C@@H](C)C(=O)N[C@@H](CCCNC(=N)N)C(=O)O (H-WWTLAR-OH) :: 910
19) CCCC[C@H](NC(=O)[C@@H]1CCCN1C(=O)[C@H](CCCCN)NC(=O)[C@@H](N)Cc1ccccc1)C(=O)N[C@@H](C)C(=O)N[C@@H](CCCN=C(N)N)C(=O)O (H-FKP[Nle]AR-OH) :: 38000

====

- Test target: C3a anaphylatoxin chemotactic receptor (Homo sapiens, UniProt Q16581)
- Assay overview: Agonist activity at human C3a receptor in human U937 cells assessed as induction of intracellular calcium release
- Format: functional, cell-based, U-937
- Experimental setup: read-out: EC50
Square brackets hold non-standard residues; d marks the D form. Peptide text beside a SMILES is read from it. hPhe = N[C@@H](CCc1ccccc1)C(=O)O
Recorded metric: EC50 (nM)

1. CC(C)C[C@H](NC(=O)[C@@H]1CCCN1C(=O)[C@H](CCc1ccccc1)NC(=O)[C@@H](N)Cc1ccccc1)C(=O)N[C@@H](C)C(=O)N[C@@H](CCCN=C(N)N)C(=O)O (H-F[hPhe]PLAR-OH) :: 1100
2. CSCC[C@H](NC(=O)[C@@H]1CCCN1C(=O)[C@H](CCCCN)NC(=O)[C@H](Cc1ccccc1)NC(=O)[C@H](CO)NC(=O)[C@@H](N)Cc1ccc(O)cc1)C(=O)N1CCC[C@H]1C(=O)N[C@@H](CC(C)C)C(=O)N(C)[C@H](C)C(=O)N[C@@H](CCCN=C(N)N)C(=O)O :: 130
3. CC(C)C[C@H](NC(=O)[C@H](CO)NC(=O)[C@H](Cc1c[nH]c2ccccc12)NC(=O)[C@@H](N)Cc1ccccc1)C(=O)N[C@@H](C)C(=O)N[C@@H](CCCNC(=N)N)C(=O)O (H-FWSLAR-OH) :: 490

Cited source for all entries: ChEMBL document CHEMBL1177720
